// values below are reported composite z-score
assay_overview: binders of probe aFGF2 on microarray, primary screen, stem cell growth factor project, biochemical, small-molecule microarray, fluorescence 635/667 (AID 1067);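 also: measures binding of biotinylated aFGF2 protein to printed compounds on slides; z-score merges feature fluorescence and signal-to-noise across triplicate slides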
assay_context: higher = more signal

molecule	composite z-score
O=C1O[C@@H](c2ccccc2)[C@@H](c2ccccc2)N2[C@@H](c3ccccc3OCCO)[C@]3(C(=O)Nc4ccccc43)[C@@H](C(=O)NC[C@H](O)c3ccccc3)[C@H]12	-0.0937
COC(=O)[C@@]1(Cc2ccccc2)[C@H]2c3cc(C(=O)N4CCCC4)[nH]c3C[C@H]2CN1C(=O)c1ccccc1	0.134
COC(=O)[C@@]1(Cc2ccccc2)[C@H]2c3cc(C(=O)N4CCCC4)n(C[C@H](O)CO)c3C[C@H]2CN1C(=O)c1ccccc1	-0.16
CN(C)CCCNC(=O)[C@@H]1c2ccccc2C(=O)N(Cc2ccc(OC(F)(F)F)cc2)[C@H]1c1ccc(CO)cc1	-0.113
CC=CC(O)C1C=CC2C(=O)N(C)C(=O)C2N1N1CCCCC1 (stereo unspecified)	-0.0231
CC(C)(C)OC(=O)CC[C@]1(C(=O)N2CCOCC2)N=C(c2ccc(OCCCO)cc2)O[C@H]1c1ccccc1	-0.0601
